Each entry below carries its recorded GLC.
species: Rattus norvegicus; assay: Open TG-GATES - Regimen: Single; format: toxicity, organism-based, Sprague-Dawley; design: regimen Single, gender Male, age 6 weeks; conditions: in vivo, po, 100 mg/kg, 24 h, tissue Plasma, route gavage, dose level High
Give your result in mg/dL as a bare value.

// worked examples, GLC included
What does the data say about its GLC? Entry: "CN(C)CCN(Cc1cccs1)c1ccccn1"
172

What does the data say about its GLC? Entry: CN(C)CCCN1c2ccccc2CCc2ccc(Cl)cc21 [CLOMIPRAMINE]
180.6

What does the data say about its GLC? Entry: CC1=C(/C=C/C(C)=C/C=C/C(C)=C/CO)C(C)(C)CCC1 [RETINOL]
193.4

Continuing:
What does the data say about its GLC? Entry: CN(C)CCCN1c2ccccc2CCc2ccccc21 [IMIPRAMINE]
176.4

---

species on record: Rattus norvegicus; test: Open TG-GATES - Regimen: Single; type: toxicity, organism-based, Sprague-Dawley; set-up: regimen Single, gender Male, age 6 weeks; conditions: in vivo, po, 0 mg/kg, 3 h, tissue Plasma, route gavage, dose level Control
property: TP (g/dL)
Give your result in g/dL as a bare value.

// worked examples, TP included
What does the data say about its TP? Entry: CC1=C(/C=C/C(C)=C/C=C/C(C)=C/CO)C(C)(C)CCC1 [RETINOL]
5.6

What does the data say about its TP? Entry: CN(C)CCCN1c2ccccc2CCc2ccccc21 [IMIPRAMINE]
5.4

What does the data say about its TP? Entry: CC/C(=C(\c1ccccc1)c1ccc(OCCN(C)C)cc1)c1ccccc1 [TAMOXIFEN]
5.6

What does the data say about its TP? Entry: COC1=CC(=O)C[C@@H](C)[C@]12Oc1c(Cl)c(OC)cc(OC)c1C2=O [GRISEOFULVIN]
5.4

Continuing:
What does the data say about its TP? Entry: CCCNC(=O)NS(=O)(=O)c1ccc(Cl)cc1 [CHLORPROPAMIDE]
5.4

What does the data say about its TP? Entry: CCOc1ccc(NC(=O)CC(C)O)cc1 (stereo unspecified) [BUCETIN]
5.4

What does the data say about its TP? Entry: COc1cc2c(c(OC)c1OC)-c1ccc(OC)c(=O)cc1[C@@H](NC(C)=O)CC2 [COLCHICINE]
5.4

---

species: Rattus norvegicus; test: Open TG-GATES - Regimen: Single; format: toxicity, organism-based, Sprague-Dawley; set-up: regimen Single, gender Male, age 6 weeks; settings: in vivo, po, 0 mg/kg, 24 h, tissue Plasma, route gavage, dose level Control
property: TC (mg/dL)
Give your result in mg/dL as a bare value.

// worked examples, TC included
What does the data say about its TC? Entry: "CC/C(=C(\c1ccccc1)c1ccc(OCCN(C)C)cc1)c1ccccc1"
93.2

What does the data say about its TC? Entry: "CN1C(=O)CN=C(c2ccccc2)c2cc(Cl)ccc21"
63.2

What does the data say about its TC? Entry: CCCNC(=O)NS(=O)(=O)c1ccc(Cl)cc1 [CHLORPROPAMIDE]
82.6

What does the data say about its TC? Entry: "CN(C)CCCN1c2ccccc2CCc2ccccc21"
76

What does the data say about its TC? Entry: COc1ccc2[nH]c([S+]([O-])Cc3ncc(C)c(OC)c3C)nc2c1 (stereo not drawn)
79.6

What does the data say about its TC? Entry: CC(C)OC(=O)C(C)(C)Oc1ccc(C(=O)c2ccc(Cl)cc2)cc1 [FENOFIBRATE]
82.8

What does the data say about its TC? Entry: "NC(N)=Nc1nc(CSCCC(N)=NS(N)(=O)=O)cs1"
81.8

What does the data say about its TC? Entry: "COC1=CC(=O)C[C@@H](C)[C@]12Oc1c(Cl)c(OC)cc(OC)c1C2=O"
78

What does the data say about its TC? Entry: "NNC(=O)c1ccncc1"
80

What does the data say about its TC? Entry: "CN(C)CCCN1c2ccccc2CCc2ccc(Cl)cc21"
83.2

Field: next compound
What does the data say about its TC? Entry: "CC1=C(/C=C/C(C)=C/C=C/C(C)=C/CO)C(C)(C)CCC1"
79.6

// provenance: ChEMBL document CHEMBL3885861
